B1: library; numbered along this chain (parent)
chain: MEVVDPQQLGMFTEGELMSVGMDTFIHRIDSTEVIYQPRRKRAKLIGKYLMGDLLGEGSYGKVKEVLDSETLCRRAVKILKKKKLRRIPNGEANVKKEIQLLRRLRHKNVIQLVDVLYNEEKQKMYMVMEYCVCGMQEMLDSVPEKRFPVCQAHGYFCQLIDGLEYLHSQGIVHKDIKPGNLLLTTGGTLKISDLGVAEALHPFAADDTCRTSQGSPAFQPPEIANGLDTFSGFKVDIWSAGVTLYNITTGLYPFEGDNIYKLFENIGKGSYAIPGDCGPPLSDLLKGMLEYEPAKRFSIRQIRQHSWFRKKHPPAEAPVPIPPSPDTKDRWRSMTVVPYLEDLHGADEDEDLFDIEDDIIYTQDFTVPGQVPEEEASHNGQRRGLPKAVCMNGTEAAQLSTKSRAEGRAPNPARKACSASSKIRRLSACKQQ

variants of: B1; assay: STK11 functional score (HeLa growth suppression), rescaled enrichment; synonymous median = 1, nonsense median = 0 (normalised score); conditions: with HeLa; variant type: missense
Some variants, each annotated with its measured STK11 functional score.
Write the number on its own, no unit after it.

Worked examples follow.
[
  {
    "mutation_list": "S378Y",
    "value_type": "STK11 functional score",
    "quantitative_result": 1.35
  },
  {
    "mutation_list": "F366I",
    "value_type": "STK11 functional score",
    "quantitative_result": 1.08
  },
  {
    "mutation_list": "R75S",
    "value_type": "STK11 functional score",
    "quantitative_result": 0.619
  }
]

Exam item: Could you please provide reported STK11 functional score for "C430V" ? Thanks!
Marked response: 1.03

Exam item: Could you please provide reported STK11 functional score for "S232Q" ? Thanks!
Marked response: 1.03

Exam item: Could you please provide reported STK11 functional score for "N412Q" ? Thanks!
Marked response: 1.37

Exam item: Could you please provide reported STK11 functional score for "S334R" ? Thanks!
Marked response: 0.671

Exam item: Could you please provide reported STK11 functional score for "R74T" ? Thanks!
Marked response: -0.214

Exam item: Could you please provide reported STK11 functional score for "W239G" ? Thanks!
Marked response: -0.0583
